Origin of measurements: patent US20170334899A1

test system: HeLa; assay: Proliferation assay (crystal violet), HeLa; format: cell-based; settings: Homo sapiens, HeLa, 96 h, HeLa cells; 4 days incubation; crystal violet staining; read-out: IC50 inhibition of proliferation, HeLa
Answer each item with its documented pIC50.
// pIC50 is dimensionless: -log10 of concentration (M)

For `Cc1nsc(Nc2cnc3ccccc3n2)c1C(=O)Nc1cccc(NS(=O)(=O)C2CCN(C(=O)OC(C)(C)C)CC2)c1` , what is its reported pIC50?
5.15

Which pIC50 value is on record for Cc1nsc(Nc2cnc(C(F)(F)F)cn2)c1C(=O)Nc1ccc(OC2CCCN(CC(F)(F)F)C2)nc1 (stereo not shown) ?
6.59

Field request: pIC50 | item: `Cc1nsc(Nc2cnc(C(F)(F)F)cn2)c1C(=O)Nc1ccc(OC2CCN(CCC(F)(F)F)CC2)nc1`
6.48

Can you share its pIC50? I mean this compound: `COCCCNC(=O)c1cccc(NC(=O)c2c(C)nsc2Nc2cnc3ccccc3n2)c1`
5.05

Could you tell me which pIC50 is on file for Cc1nsc(Nc2cnc(C(F)(F)F)cn2)c1C(=O)Nc1ccc(C(=O)NCCN2CCCC(F)C2)cc1 (stereo not shown) ?
5.60

Which value of pIC50 has been reported for `CC(=O)N1CCC(Oc2ccc(NC(=O)c3c(C)nsc3Nc3cnc4ccccc4n3)cn2)CC1` in the records?
5.12

Requested read-out: pIC50. Entry: Cc1nsc(Nc2cnc(C(F)(F)F)cn2)c1C(=O)Nc1ccc(OC[C@H]2CCN(CC(F)(F)F)C2)nc1 [Example 404]
6.60

Recorded pIC50 of `Cc1nsc(Nc2cncc(C(F)(F)F)n2)c1C(=O)Nc1ccc(OC2CCNCC2)nc1` , please.
5.00

Bench note: what pIC50 did `Cc1nsc(Nc2cnc(C(F)(F)F)cn2)c1C(=O)Nc1ccc(O[C@@H]2CCN(CC(F)F)C2)nc1` show?
6.21

Looking for the measured pIC50 of `Cc1nsc(Nc2cnc(C(F)(F)F)cn2)c1C(=O)Nc1ccc(OC[C@H]2CCN(CCC(F)(F)F)C2)nc1` , can you help?
6.35

# query: pIC50 of entry `Cc1nsc(Nc2cnc(C(F)(F)F)cn2)c1C(=O)Nc1ccc(OCCCNCC(F)(F)F)nc1`
5.74

Quick check: pIC50 of `Cc1nsc(Nc2cncc(C(F)(F)F)n2)c1C(=O)Nc1cccc(S(C)(=O)=O)c1` ?
5.60

Reported pIC50, compound `Cc1nsc(Nc2cnc(C(F)(F)F)cn2)c1C(=O)Nc1ccc(F)c(OC[C@@H]2CCCN(CCC(F)(F)F)C2)c1` : ____
6.32
